Just for reference, PubChem BioAssay (NCATS) is where these values come from.

assay.target: Ubiquitin carboxyl-terminal hydrolase 1 (Homo sapiens) (UniProt O94782)
Sequence (O94782 whole entry, looked up): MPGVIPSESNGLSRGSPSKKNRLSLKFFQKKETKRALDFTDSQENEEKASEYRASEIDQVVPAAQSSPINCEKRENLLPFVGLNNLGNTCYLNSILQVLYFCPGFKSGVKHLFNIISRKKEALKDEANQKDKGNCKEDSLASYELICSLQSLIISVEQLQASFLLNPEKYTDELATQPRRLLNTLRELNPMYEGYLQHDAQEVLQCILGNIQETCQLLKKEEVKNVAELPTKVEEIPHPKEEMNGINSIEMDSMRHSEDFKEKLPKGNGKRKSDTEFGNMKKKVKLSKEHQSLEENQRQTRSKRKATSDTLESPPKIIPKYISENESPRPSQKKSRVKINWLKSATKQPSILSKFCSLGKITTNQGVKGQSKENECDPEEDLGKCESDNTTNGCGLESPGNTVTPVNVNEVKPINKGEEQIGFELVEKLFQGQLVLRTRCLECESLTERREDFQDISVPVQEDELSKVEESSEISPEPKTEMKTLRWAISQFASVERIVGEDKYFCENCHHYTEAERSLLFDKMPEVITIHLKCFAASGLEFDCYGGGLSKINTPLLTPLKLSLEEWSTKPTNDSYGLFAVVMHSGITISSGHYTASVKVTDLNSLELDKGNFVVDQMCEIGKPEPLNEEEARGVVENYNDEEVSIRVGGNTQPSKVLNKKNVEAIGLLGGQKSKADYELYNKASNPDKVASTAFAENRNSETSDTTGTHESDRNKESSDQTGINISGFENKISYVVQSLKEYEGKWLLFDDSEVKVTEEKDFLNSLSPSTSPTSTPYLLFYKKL
assay.comment: Inhibitors of USP1/UAF1: Pilot qHTS (AID 504865); also: nearly all actives have a fitted effect of over 35% in size
run.parameters: purified USP1/UAF1, Ub-rhodamine cleavage fluorescence; series mostly up to 54.9 µM
Records with an inconclusive call do not appear. The source made the active and inactive calls. Calls follow the shape of the dose curve; as a rule, active = well fitted inhibition curve with a large enough effect; inconclusive = small, poorly fitted or top-dose-only effect; inactive = flat fitted curve, though single readings scatter.
Valid outcomes are listed here; reply with one: active, inactive

Reference set, count: 4
entry.smiles: COc1ccc(-n2c(=O)c(-c3cccs3)nc3cnc(N(C)C)nc32)cc1
assay.target: Ubiquitin carboxyl-terminal hydrolase 1 (Homo sapiens) (UniProt O94782)
class.name: inactive
--
entry.smiles: Cc1noc(C)c1-c1cncnc1NCc1cccnc1
assay.target: Ubiquitin carboxyl-terminal hydrolase 1 (Homo sapiens) (UniProt O94782)
class.name: inactive
--
entry.smiles: COCCn1c(=O)c(-c2cccc(C#N)c2)nc2cnc(Oc3ccccc3)nc21
assay.target: Ubiquitin carboxyl-terminal hydrolase 1 (Homo sapiens) (UniProt O94782)
class.name: inactive
--
entry.smiles: COc1ccc(-n2c(=O)c(C)nc3cnc(OC)nc32)cc1
assay.target: Ubiquitin carboxyl-terminal hydrolase 1 (Homo sapiens) (UniProt O94782)
class.name: inactive

Outcome? CC(/C=C1\SC(=S)N(CC(=O)O)C1=O)=C\c1ccccc1
inactive

Outcome? c1cncc(-c2nc(N3CCNCC3)c3ccccc3n2)c1
inactive

Outcome? COCCNc1nc(-c2ccccc2Cl)nc2ccccc12
inactive

Outcome? CO[C@H]1/C=C/O[C@@]2(C)Oc3c(C)c(O)c4c(O)c(c(/C=N\N5CCN(C6CCCC6)CC5)c(O)c4c3C2=O)NC(=O)/C(C)=C\C=C\[C@H](C)[C@H](O)[C@@H](C)[C@@H](O)[C@@H](C)[C@H](OC(C)=O)[C@@H]1C
active

Outcome? O=c1c(-c2ccc(F)c(F)c2)nc2cncnc2n1C1CC1
inactive

Outcome? N#Cc1ccccc1-c1nc(NCCN2CCOCC2)c2ccccc2n1
inactive

Outcome? Cc1noc(C)c1-c1cc(NCc2cccnc2)ncn1
inactive

Outcome? COc1ccc(-c2nc3cnc(Oc4cccc(Cl)c4)nc3n(C3CC3)c2=O)cc1
inactive

* * *

assay.comment: qHTS Assay for Lipid Storage Modulators (AID 1519); also: % is scaled to controls: 0 for no effect and ±100 for the full control effect
run.parameters: Drosophila S3 cells, BODIPY lipid droplet/cell ratio, laser cytometry; at 57.5 µM (top of the series); cells loaded with oleic acid
Results filed as inconclusive are left out.
measured.endpoint: activity change, negative = inhibition (%)
Respond numerically; units are % and should not be typed.

entry.smiles: COc1ncc2nc(-c3ccc(F)cc3)c(=O)n(-c3ccccc3)c2n1
activity change, negative = inhibition (%): 2.16

entry.smiles: COC(=O)N1CCC[C@@]2(CCN(C(c3ccccc3)c3ccccc3)C2)C1
activity change, negative = inhibition (%): -5.11

entry.smiles: COCCn1c(=O)c(CCc2ccccc2)nc2cnc(Nc3cccc(OC)c3)nc21
activity change, negative = inhibition (%): -3.18

entry.smiles: O=C(c1ccncc1)N1CCC2(CC1)CN(c1ncccn1)C2
activity change, negative = inhibition (%): 0.437

activity change, negative = inhibition measured on O=S(=O)(c1ccccc1)N1CCC2(CCCN(c3ncccn3)C2)CC1 = 7.3

activity change, negative = inhibition measured on COc1ccc(-c2nc3cnc(N4CCN(C)CC4)nc3n(Cc3cccc(OC)c3)c2=O)cc1 = -2.59

activity change, negative = inhibition measured on CC(=O)NCCNc1nc(-c2ccccc2C(F)(F)F)nc2ccccc12 = 9.13

activity change, negative = inhibition measured on CN1CCN(c2ncncc2-c2ccccc2C(F)(F)F)CC1 = 6.69

activity change, negative = inhibition measured on Cc1nc2cnc(N3CCOCC3)nc2n(C[C@H]2CCCO2)c1=O = 3.62

activity change, negative = inhibition measured on CN(Cc1ccco1)c1ncnc2ccc(-c3cccc(C#N)c3)cc12 = 6.34

activity change, negative = inhibition measured on c1csc(CNc2cc(-c3ccoc3)ncn2)c1 = 5.83
